system: P. falciparum strain K1; test: in vitro; conditions: rat, Selectivity index: IC50 Cytotoxicity L6/ IC50 P. falciparum
Structures can show the parent of a compound that is named as a salt.
Quick reference: selectivity ratio of the listed items.
// no unit string in output, number only

CO[C@H]1/C=C/O[C@@]2(C)Oc3c(C)c(O)c4c(O)c(cc(O)c4c3C2=O)NC(=O)/C(C)=C\C=C\[C@H](C)[C@H](O)[C@@H](C)[C@@H](O)[C@@H](C)[C@H](OC(C)=O)[C@@H]1C [Rifamycin SV (Sodium salt), Rifamycin SV] | 29
COc1cc(C)c2c(Oc3cccc(C(F)(F)F)c3)c(OC)cc(NC(C)CCCN)c2n1 (stereo not drawn) | 20

Okay, now this molecule:
Enquiry: Please give the measured selectivity ratio for this molecule: CN1CCC(=C2c3ccccc3CC(=O)c3sccc32)CC1
Return: 196

====

tested on: macrophages infected with L. donovani; assay: Cytotoxicity on macrophages infected with L. donovani; format: cell-based, mouse; settings: macrophages infected with L. donovani; read-out: IC50 Cytotox. mac.inf.
pIC50: −log10 of the molar value.
measurement-label: pIC50

Check out these entries, answers already filled in.
O=C(O)c1nn(Cc2ccc(Cl)cc2Cl)c2ccccc12 [Lonidamine] | < 4.03
CC1CS(=O)(=O)CCN1/N=C/c1ccc([N+](=O)[O-])o1 (centres unmarked) [Nifurtimox] | < 4.46
CC(=O)OC[C@H]1O[C@@H]([S-])[C@H](OC(C)=O)[C@@H](OC(C)=O)[C@@H]1OC(C)=O.CCP(CC)CC.[Au+] [Auranofin] | 5.35
CCC[C@@]1(CCc2ccccc2)CC(O)=C([C@H](CC)c2cccc(NS(=O)(=O)c3ccc(C(F)(F)F)cn3)c2)C(=O)O1 [Tipranavir] | < 4.30

Okay, now this molecule:
Enquiry: Please give the measured pIC50 for this molecule: Cc1cc(C2CCCCC2)n(O)c(=O)c1 [Ciclopirox olamine]
Return: < 4.95

====

tested on: T. cruzi, strain Tulahuen C4, intracellular amastigotes; assay: microbe, parasite or virus in culture; settings: Trypanosoma cruzi, TULAHUEN, read-out: IC50 T. cruzi
Where a name gives a salt, the structure may show the parent alone.
Quick reference: pIC50 of the listed items.
Formally, pIC50 is defined as -log10 of the concentration c, with c in mol/L.

Check out these entries, answers already filled in.
O=C(N/N=C/c1ccc([N+](=O)[O-])o1)c1ccc(O)cc1 [Nifuroxazide] | 6.64
O=C(O)COCCN1CCN(C(c2ccccc2)c2ccc(Cl)cc2)CC1 (stereo not shown) [Cetirizine (Hydrochloride), Cetirizine] | 3.92

Enquiry: Please give the measured pIC50 for this molecule: Cc1c(O)cccc1C(=O)N[C@@H](CSc1ccccc1)[C@H](O)CN1C[C@H]2CCCC[C@H]2C[C@H]1C(=O)NC(C)(C)C [Nelfinavir]
Return: 4.99

====

Quick reference: IC50 of the listed items.
Test system: T. cruzi, strain Tulahuen C4, intracellular amastigotes
Assay: microbe, parasite or virus in culture
Settings: Trypanosoma cruzi, TULAHUEN, read-out: IC50 T. cruzi
Description: Drug stock solutions (10mg/ml) were in DMSO (100%). […] Selectivity index (SI) was calculated as IC50 L6 cells/IC50 parasite.
Please answer in the form of a number followed by its unit of measurement.

Enquiry: Please give the measured IC50 for this compound: O=C(Nc1ccc([N+](=O)[O-])cc1Cl)c1cc(Cl)ccc1O [Niclosamide]
Return: 2.49 µM

Enquiry: Please give the measured IC50 for this compound: Cc1oncc1C(=O)Nc1ccc(C(F)(F)F)cc1 [Leflunomide]
Return: 152 µM

Enquiry: Please give the measured IC50 for this compound: N=C(N)c1ccc(OCCCCCOc2ccc(C(=N)N)cc2)cc1
Return: 4.44 µM

Enquiry: Please give the measured IC50 for this compound: CC(=O)OCC(CCn1cnc2cnc(N)nc21)COC(C)=O
Return: 207 µM

Enquiry: Please give the measured IC50 for this compound: Cc1nc2ccccn2c(=O)c1CCN1CCC(C(=O)c2ccc(F)cc2)CC1
Return: 128 µM

Enquiry: Please give the measured IC50 for this compound: CC(C)(C)NC(=O)[C@@H]1CN(Cc2cccnc2)CCN1C[C@@H](O)C[C@@H](Cc1ccccc1)C(=O)N[C@H]1c2ccccc2C[C@H]1O [Indinavir (Sulfate), Indinavir]
Return: 93.5 µM

Enquiry: Please give the measured IC50 for this compound: CN(C)CCC=C1c2ccccc2CCc2ccccc21
Return: 35.1 µM

Enquiry: Please give the measured IC50 for this compound: CC(C)CN(C[C@@H](O)[C@H](Cc1ccccc1)NC(=O)O[C@H]1CO[C@H]2OCC[C@H]21)S(=O)(=O)c1ccc(N)cc1
Return: 92.2 µM

These entries and their values trace back to paper PMC4535766.
